Target Under Test: ANKK1 (human) (UniProt Q8NFD2)
Sequence (Q8NFD2 whole entry, looked up): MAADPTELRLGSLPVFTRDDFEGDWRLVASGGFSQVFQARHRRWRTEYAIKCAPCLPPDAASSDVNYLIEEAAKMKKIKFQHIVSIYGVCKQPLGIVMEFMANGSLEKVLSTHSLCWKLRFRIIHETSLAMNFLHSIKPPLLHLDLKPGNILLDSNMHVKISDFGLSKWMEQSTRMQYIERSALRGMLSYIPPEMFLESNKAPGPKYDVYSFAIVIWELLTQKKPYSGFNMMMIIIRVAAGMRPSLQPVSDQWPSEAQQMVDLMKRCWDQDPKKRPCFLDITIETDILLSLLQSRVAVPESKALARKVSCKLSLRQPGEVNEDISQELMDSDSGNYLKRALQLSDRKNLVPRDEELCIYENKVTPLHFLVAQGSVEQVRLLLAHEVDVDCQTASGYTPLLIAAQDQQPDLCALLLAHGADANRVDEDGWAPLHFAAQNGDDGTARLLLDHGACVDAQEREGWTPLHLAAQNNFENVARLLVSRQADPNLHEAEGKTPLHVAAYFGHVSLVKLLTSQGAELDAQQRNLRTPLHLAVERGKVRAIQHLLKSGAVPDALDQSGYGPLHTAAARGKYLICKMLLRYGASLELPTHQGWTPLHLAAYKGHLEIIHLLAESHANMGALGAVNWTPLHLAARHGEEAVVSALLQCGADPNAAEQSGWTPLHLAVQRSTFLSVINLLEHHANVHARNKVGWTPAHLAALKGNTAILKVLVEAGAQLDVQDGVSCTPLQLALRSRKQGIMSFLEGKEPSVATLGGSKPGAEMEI
Method Notes: KINOMEscan competition binding
Conditions: compound 10.0 µM
Readout: kinase still bound, per cent of control (%)
Report the value in % with no unit label.

In: Consider the compound Cc1cn(-c2cc(C(=O)Nc3ccc(C)c(NC(=O)c4ccno4)c3)cc(C(F)(F)F)c2)cn1 and give its measured kinase still bound, per cent of control.
Out: 100

In: Consider the compound CCc1nc(-c2cccc(C)c2)c(-c2ccnc(NC(=O)c3ccccc3)c2)s1 and give its measured kinase still bound, per cent of control.
Out: 83

In: Consider the compound CCN1CCN(Cc2ccc(NC(=O)c3ccc(C)c(/C=C/c4cnc5[nH]ccc5c4OC)c3)cc2C(F)(F)F)CC1 and give its measured kinase still bound, per cent of control.
Out: 5.7

In: Consider the compound C=CC(=O)Nc1ccc(C(=O)c2sc(Nc3ccc(N4CCN(C)CC4)cc3OC)nc2N)cc1 and give its measured kinase still bound, per cent of control.
Out: 100

In: Consider the compound CC1=C(C(=O)Nc2cc3cn[nH]c3cc2F)C(c2ccc(C(F)(F)F)cc2)CC(=O)N1 (stereo not drawn) and give its measured kinase still bound, per cent of control.
Out: 97

In: Consider the compound CCCS(=O)(=O)Nc1ccc(F)c(C(=O)c2c[nH]c3ncc(Cl)cc23)c1F and give its measured kinase still bound, per cent of control.
Out: 98

In: Consider the compound COc1cc(N2CCC(C(N)=O)CC2)ccc1Nc1nc(N)c(Cl)c(Nc2ccccc2S(=O)(=O)C(C)C)n1 and give its measured kinase still bound, per cent of control.
Out: 100

In: Consider the compound CCOc1cc(N2CCC(O)CC2)ccc1Nc1ncc2c(n1)N(C)c1ccccc1C(=O)N2C and give its measured kinase still bound, per cent of control.
Out: 100

In: Consider the compound COc1ccc(N(C(=O)Oc2cc(C(=O)Nc3cccc(C(F)(F)F)c3)ccc2C)c2ccnc(Nc3ccc(N4CCN(C)CC4)cc3)n2)c(OC)c1 and give its measured kinase still bound, per cent of control.
Out: 100

In: Consider the compound CC(=O)c1c(C)c2cnc(Nc3ccc(N4CCNCC4)cn3)nc2n(C2CCCC2)c1=O and give its measured kinase still bound, per cent of control.
Out: 79

In: Consider the compound N#C/C(=C1/Nc2ccccc2S1)c1ccnc(NCCc2cccnc2)n1 and give its measured kinase still bound, per cent of control.
Out: 5.6

In: Consider the compound O=c1[nH]c2ccccc2n1C1CCN(Cc2ccc(-c3nc4cc5[nH]cnc5cc4nc3-c3ccccc3)cc2)CC1 and give its measured kinase still bound, per cent of control.
Out: 73

In: Consider the compound COc1cc2c(Nc3ccc(NC(=O)c4ccccc4)cc3)ncnc2cc1OCCCN1CCOCC1 and give its measured kinase still bound, per cent of control.
Out: 17

In: Consider the compound CCN(CCO)CCCOc1ccc2c(Nc3cc(CC(=O)Nc4cccc(F)c4)[nH]n3)ncnc2c1 and give its measured kinase still bound, per cent of control.
Out: 11

In: Consider the compound COc1cc2ncnc(Nc3cccc(Cl)c3)c2cc1OC and give its measured kinase still bound, per cent of control.
Out: 63

In: Consider the compound CNC(=O)Nc1ccc(-c2nc(N3CC4CCC(C3)O4)c3cnn(C4CCC5(CC4)OCCO5)c3n2)cc1 and give its measured kinase still bound, per cent of control.
Out: 77

In: Consider the compound COc1cc(C)c(Sc2cnc(NC(=O)c3ccc(CNC(C)C(C)C)cc3)s2)cc1C(=O)N1CCN(C(C)=O)CC1 (stereo not drawn) and give its measured kinase still bound, per cent of control.
Out: 100

In: Consider the compound N#Cc1cc(-c2ccnc(Nc3ccc(-n4cnc(-c5cccnc5)n4)cc3)n2)cc(N2CCOCC2)c1 and give its measured kinase still bound, per cent of control.
Out: 55

* * *

Target Under Test: CDK13 (human)
Method Notes: KINOMEscan competition binding
Conditions: compound 10.0 µM
Readout: kinase still bound, per cent of control (%)
Report the value in % with no unit label.

In: Consider the compound C=CC(=O)Nc1ccc(C(=O)c2sc(Nc3ccc(N4CCN(C)CC4)cc3OC)nc2N)cc1 and give its measured kinase still bound, per cent of control.
Out: 100

In: Consider the compound COc1cc2ncnc(Nc3cccc(Cl)c3)c2cc1OC and give its measured kinase still bound, per cent of control.
Out: 91

In: Consider the compound CCN1CCN(Cc2ccc(NC(=O)c3ccc(C)c(/C=C/c4cnc5[nH]ccc5c4OC)c3)cc2C(F)(F)F)CC1 and give its measured kinase still bound, per cent of control.
Out: 100

In: Consider the compound N#C/C(=C1/Nc2ccccc2S1)c1ccnc(NCCc2cccnc2)n1 and give its measured kinase still bound, per cent of control.
Out: 61

In: Consider the compound COc1cc2c(Nc3ccc(NC(=O)c4ccccc4)cc3)ncnc2cc1OCCCN1CCOCC1 and give its measured kinase still bound, per cent of control.
Out: 100

* * *

Field: kinase still bound, per cent of control. Provide a value for each of the compounds that follow.
Target Under Test: MLTK (human)
Method Notes: KINOMEscan competition binding
Conditions: compound 10.0 µM
Report the value in % with no unit label.

In: Consider the compound COc1cc(C)c(Sc2cnc(NC(=O)c3ccc(CNC(C)C(C)C)cc3)s2)cc1C(=O)N1CCN(C(C)=O)CC1 (stereo not drawn) and give its measured kinase still bound, per cent of control.
Out: 100

In: Consider the compound COc1cc2ncnc(Nc3cccc(Cl)c3)c2cc1OC and give its measured kinase still bound, per cent of control.
Out: 94

In: Consider the compound N#Cc1cc(-c2ccnc(Nc3ccc(-n4cnc(-c5cccnc5)n4)cc3)n2)cc(N2CCOCC2)c1 and give its measured kinase still bound, per cent of control.
Out: 17

In: Consider the compound C=CC(=O)Nc1ccc(C(=O)c2sc(Nc3ccc(N4CCN(C)CC4)cc3OC)nc2N)cc1 and give its measured kinase still bound, per cent of control.
Out: 100

In: Consider the compound Cc1cn(-c2cc(C(=O)Nc3ccc(C)c(NC(=O)c4ccno4)c3)cc(C(F)(F)F)c2)cn1 and give its measured kinase still bound, per cent of control.
Out: 7.8

In: Consider the compound CCN1CCN(Cc2ccc(NC(=O)c3ccc(C)c(/C=C/c4cnc5[nH]ccc5c4OC)c3)cc2C(F)(F)F)CC1 and give its measured kinase still bound, per cent of control.
Out: 0.8

In: Consider the compound COc1cc2c(Nc3ccc(NC(=O)c4ccccc4)cc3)ncnc2cc1OCCCN1CCOCC1 and give its measured kinase still bound, per cent of control.
Out: 34

In: Consider the compound O=c1[nH]c2ccccc2n1C1CCN(Cc2ccc(-c3nc4cc5[nH]cnc5cc4nc3-c3ccccc3)cc2)CC1 and give its measured kinase still bound, per cent of control.
Out: 92

* * *

Test system: FGFR3 (human), P22607 [G697C]
Sequence (P22607 whole entry G697C, looked up): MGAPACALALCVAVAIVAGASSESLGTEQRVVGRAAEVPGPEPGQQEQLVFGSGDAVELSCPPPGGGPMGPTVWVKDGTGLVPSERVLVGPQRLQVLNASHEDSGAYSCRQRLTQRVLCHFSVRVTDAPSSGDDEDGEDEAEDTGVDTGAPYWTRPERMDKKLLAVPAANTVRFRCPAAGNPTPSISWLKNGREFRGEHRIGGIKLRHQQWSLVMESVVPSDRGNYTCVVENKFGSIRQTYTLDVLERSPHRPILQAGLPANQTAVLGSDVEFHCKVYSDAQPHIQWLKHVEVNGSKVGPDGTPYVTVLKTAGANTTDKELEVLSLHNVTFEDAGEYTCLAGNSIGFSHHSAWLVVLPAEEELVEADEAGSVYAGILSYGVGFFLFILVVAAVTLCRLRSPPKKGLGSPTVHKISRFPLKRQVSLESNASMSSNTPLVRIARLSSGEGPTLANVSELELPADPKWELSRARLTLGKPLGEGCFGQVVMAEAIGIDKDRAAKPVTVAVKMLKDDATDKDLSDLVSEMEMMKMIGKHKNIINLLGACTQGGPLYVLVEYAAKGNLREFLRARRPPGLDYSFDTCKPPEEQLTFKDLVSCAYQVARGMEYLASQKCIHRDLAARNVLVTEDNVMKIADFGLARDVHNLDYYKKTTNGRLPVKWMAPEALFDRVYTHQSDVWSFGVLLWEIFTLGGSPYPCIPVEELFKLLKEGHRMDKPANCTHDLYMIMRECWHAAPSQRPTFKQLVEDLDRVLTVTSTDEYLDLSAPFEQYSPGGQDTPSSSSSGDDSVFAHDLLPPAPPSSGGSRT
Method Notes: KINOMEscan competition binding
Conditions: compound 10.0 µM
Field: kinase still bound, per cent of control. Provide a value for each of the molecules that follow.
Report the value in % with no unit label.

In: Query the reported kinase still bound, per cent of control for FGFR3 (human), P22607 [G697C]; item: O=C1NC(=O)/C(=C/c2ccc3nccc(-c4ccncc4)c3c2)S1
Out: 100

In: Query the reported kinase still bound, per cent of control for FGFR3 (human), P22607 [G697C]; item: N#C/C(=C1/Nc2ccccc2S1)c1ccnc(NCCc2cccnc2)n1
Out: 100

In: Query the reported kinase still bound, per cent of control for FGFR3 (human), P22607 [G697C]; item: N#CCNC(=O)c1ccc(-c2ccnc(Nc3ccc(N4CCOCC4)cc3)n2)cc1
Out: 79

In: Query the reported kinase still bound, per cent of control for FGFR3 (human), P22607 [G697C]; item: O=C(NC1CC1)c1cccc(-c2ccc3c(NC(=O)C4CC4)n[nH]c3c2)c1
Out: 100

In: Query the reported kinase still bound, per cent of control for FGFR3 (human), P22607 [G697C]; item: CNC(=O)Nc1ccc(-c2nc(N3CC4CCC(C3)O4)c3cnn(C4CCC5(CC4)OCCO5)c3n2)cc1
Out: 74

In: Query the reported kinase still bound, per cent of control for FGFR3 (human), P22607 [G697C]; item: O=C(Nc1cccc(Nc2ncc(Br)c(NCCc3cnc[nH]3)n2)c1)N1CCCC1
Out: 0.8

In: Query the reported kinase still bound, per cent of control for FGFR3 (human), P22607 [G697C]; item: C=CC(=O)Nc1cc(-n2c(=O)ccc3cnc4ccc(-c5cn[nH]c5)cc4c32)ccc1C
Out: 74

In: Query the reported kinase still bound, per cent of control for FGFR3 (human), P22607 [G697C]; item: CCN1CCN(Cc2ccc(Nc3ncc4c(n3)N(C)c3ccccc3C(=O)N4C)cc2C(F)(F)F)CC1
Out: 31

In: Query the reported kinase still bound, per cent of control for FGFR3 (human), P22607 [G697C]; item: Cc1n[nH]c2ccc(-c3cncc(OC[C@@H](N)Cc4c[nH]c5ccccc45)c3)cc12
Out: 100

* * *

Target Under Test: INSRR (human)
Method Notes: KINOMEscan competition binding
Conditions: compound 10.0 µM
Readout: kinase still bound, per cent of control (%)
Report the value in % with no unit label.

In: Consider the compound Cc1cn(-c2cc(C(=O)Nc3ccc(C)c(NC(=O)c4ccno4)c3)cc(C(F)(F)F)c2)cn1 and give its measured kinase still bound, per cent of control.
Out: 100

In: Consider the compound O=c1[nH]c2ccccc2n1C1CCN(Cc2ccc(-c3nc4cc5[nH]cnc5cc4nc3-c3ccccc3)cc2)CC1 and give its measured kinase still bound, per cent of control.
Out: 100

In: Consider the compound N#Cc1cc(-c2ccnc(Nc3ccc(-n4cnc(-c5cccnc5)n4)cc3)n2)cc(N2CCOCC2)c1 and give its measured kinase still bound, per cent of control.
Out: 68

In: Consider the compound COc1ccc(N(C(=O)Oc2cc(C(=O)Nc3cccc(C(F)(F)F)c3)ccc2C)c2ccnc(Nc3ccc(N4CCN(C)CC4)cc3)n2)c(OC)c1 and give its measured kinase still bound, per cent of control.
Out: 100
